Provenance of the data: patent US20180334496A1

- TARGET OF ASSAY: T1, serum purified human Complement Factor D (human, UniProt P00746 26-253)
- T1 construct: Serum purified protein flowed over the captured antibodies; also called CFD; human CFD
- T1 sequence (P00746 26-253): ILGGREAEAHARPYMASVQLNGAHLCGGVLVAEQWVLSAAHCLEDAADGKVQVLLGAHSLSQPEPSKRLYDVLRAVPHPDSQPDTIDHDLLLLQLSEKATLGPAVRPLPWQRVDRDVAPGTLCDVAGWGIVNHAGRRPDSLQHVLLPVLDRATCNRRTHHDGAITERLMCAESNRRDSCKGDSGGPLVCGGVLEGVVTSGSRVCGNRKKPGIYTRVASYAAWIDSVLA
- TEST PROTOCOL: SPR Biacore, 25 C
MEASUREMENT NAME: kon (M⁻¹ s⁻¹)
// units = M⁻¹ s⁻¹; emit number, no label

# BINDER, kon (M⁻¹ s⁻¹)
rows = [
    ("34I54I59D / 54R101V (antibody, V domains shown, KCD119 TAF variant) VH: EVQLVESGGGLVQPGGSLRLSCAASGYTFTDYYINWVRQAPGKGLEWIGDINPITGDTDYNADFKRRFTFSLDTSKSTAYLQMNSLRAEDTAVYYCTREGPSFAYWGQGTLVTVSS VL: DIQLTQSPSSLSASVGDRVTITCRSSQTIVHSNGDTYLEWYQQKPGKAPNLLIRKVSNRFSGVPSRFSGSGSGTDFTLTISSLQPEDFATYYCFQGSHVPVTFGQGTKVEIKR", "1.8e+07"),
    ("31S54I59D / 54R101V (antibody, V domains shown, KCD119 TAF variant) VH: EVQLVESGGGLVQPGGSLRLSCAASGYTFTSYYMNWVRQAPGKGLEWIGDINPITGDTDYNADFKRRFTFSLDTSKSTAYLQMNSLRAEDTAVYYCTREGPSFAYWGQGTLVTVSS VL: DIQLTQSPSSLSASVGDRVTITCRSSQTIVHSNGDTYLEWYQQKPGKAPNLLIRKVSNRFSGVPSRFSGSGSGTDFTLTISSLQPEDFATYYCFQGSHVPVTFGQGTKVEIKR", "1.44e+07"),
]

Record request: kon value, item 31S34I54I59D / 54R101V (antibody, V domains shown, KCD119 TAF variant) VH: EVQLVESGGGLVQPGGSLRLSCAASGYTFTSYYINWVRQAPGKGLEWIGDINPITGDTDYNADFKRRFTFSLDTSKSTAYLQMNSLRAEDTAVYYCTREGPSFAYWGQGTLVTVSS VL: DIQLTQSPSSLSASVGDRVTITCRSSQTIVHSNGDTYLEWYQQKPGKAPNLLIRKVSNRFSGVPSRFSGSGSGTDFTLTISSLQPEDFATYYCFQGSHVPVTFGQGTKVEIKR
1.32e+07
